methodDescription: Metabolic stability in human liver microsome assessed as compound remaining after 30 mins
Assay type: ADME
measurementParameters: liver microsomes, read-out: Stability
A collection of compounds and their measured remaining at 0.5 h
Express it in %; write the number only.

Below: 5 compounds and their reported remaining at 0.5 h.
Lab note: measured remaining at 0.5 h of CCOc1nc2c(cc1Cc1cccc(Cl)c1F)c(=O)c(C(=O)O)cn2[C@H](CO)C(C)(C)C was 84

Lab note: measured remaining at 0.5 h of COc1nc2c(cc1Cc1cccc(Cl)c1F)c(=O)c(C(=O)O)cn2[C@H](CO)C(C)C was 100

Lab note: measured remaining at 0.5 h of COc1nc2c(cc1Cc1cccc(Cl)c1F)c(=O)c(C(=O)O)cn2[C@H](CO)CC(C)C was 92

Lab note: measured remaining at 0.5 h of COc1nc2c(cc1NCc1ccccc1F)c(=O)c(C(=O)O)cn2[C@H](CO)C(C)C was 97

Lab note: measured remaining at 0.5 h of COc1nc2c(cc1Cc1cccc(Cl)c1F)c(=O)c(C(=O)O)cn2[C@H](CO)C(C)(C)C was 82

Further cases:
Lab note: measured remaining at 0.5 h of COc1nc2c(cc1NCc1ccc(F)cc1)c(=O)c(C(=O)O)cn2[C@H](CO)C(C)C was 87

Lab note: measured remaining at 0.5 h of COc1nc2c(cc1NCc1c(F)cc(F)cc1F)c(=O)c(C(=O)O)cn2[C@H](CO)C(C)(C)C was 75

Lab note: measured remaining at 0.5 h of COc1nc2c(cc1NCc1c(F)cc(F)cc1F)c(=O)c(C(=O)O)cn2[C@H](CO)C(C)C was 82

Lab note: measured remaining at 0.5 h of COc1cc2c(cc1Cc1cccc(Cl)c1F)c(=O)c(C(=O)O)cn2[C@H](CO)C(C)C was 38

Lab note: measured remaining at 0.5 h of COc1nc2c(cc1NCc1ccc(F)cc1F)c(=O)c(C(=O)O)cn2[C@H](CO)C(C)C was 87
